System: TGFBR2
condition.parameters: concentration: 1 μM, replicates: in singlicate; n = 1;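 also: KINOMEscan kinase panel screen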
Would you mind labelling by %Inh? At or over 5% is Met, under is Not met.

Decide: is the reported value of %Inh for Cc1occc1-c1ncc(OC[C@@H](N)Cc2c[nH]c3ccccc23)cc1-c1ccc2[nH]nc(C)c2c1.O=C(O)C(F)(F)F [GSK682037] equal to or greater than 5%?
Not met

Entry COc1cc(Nc2nccc(-c3c(-c4cccc(NC(=O)c5c(F)cccc5F)c4)nn4ncccc34)n2)cc(OC)c1OC [GSK327238] : is its %Inh no less than 5%?
Met

###

Tested on: VRK2
condition.parameters: concentration: 1 μM, replicates: in singlicate; n = 1
Would you please tag the item criterion met when its %Inh is 20% or above, and criterion not met when it is below?

molecule | label
COc1ccc(Nc2nccc(NCCNC(=O)c3cc4ccccc4s3)n2)cc1 | criterion not met
CN1CCN(CCCNc2nccc(-c3c(-c4ccc(F)cc4)nn4cc(C(F)(F)F)ccc34)n2)CC1 | criterion not met
CCn1c(-c2nonc2N)nc2c(C#CC(C)(C)O)nc(OC[C@H](N)c3ccccc3)cc21 | criterion not met
Cc1ccc(C)c(NC(=O)NC2CCN(c3ccnc(Nc4ccc(F)cc4)n3)C2)c1 (stereo not drawn) | criterion met
COC(=O)Nc1nc2cc(Oc3ccc(NC(=O)Nc4cc(C(F)(F)F)ccc4F)cn3)ccc2[nH]1.Cl.Cl | criterion met
COc1cccc(C(=O)Nc2cccc(Oc3ccc4nc(NC(=O)C5CC5)cn4n3)c2)c1 | criterion not met

Reported %Inh at or above 20%? c1ccc(-c2n[nH]cc2Nc2ccnc3ccccc23)nc1
criterion met

Does CN1CCN(Cc2cccc(-c3ccc4c(Nc5ccc(Oc6ccccc6)cc5)ccnc4c3)c2)CC1 have a reported %Inh of at least 20%?
criterion met

Given the entry Cl.c1ccc(-c2ccc3c(Nc4ccc5[nH]ccc5c4)ccnc3c2)nc1 , answer whether its %Inh meets or surpasses 20%.
criterion met

Check this molecule for %Inh at or above 20%: Cc1occc1-c1ncc(OC[C@@H](N)Cc2c[nH]c3ccccc23)cc1-c1ccc2[nH]nc(C)c2c1.O=C(O)C(F)(F)F
criterion met

Answer whether %Inh of O=C(Nc1cccc(-c2nn3ncccc3c2-c2ccnc(Nc3ccccc3)n2)c1)c1c(F)cccc1F is greater than or equal to 20%.
criterion not met

Reported %Inh at or above 20%? Clc1ccc(-c2nn3ncccc3c2-c2ccnc(Nc3ccc4c(c3)OCCO4)n2)cc1
criterion not met

Textbook exercise: given the entry C[C@@H]1CC[C@@H](C(=O)Nc2ccccc2)CN1c1cc(-c2ccc3c(N)n[nH]c3c2)nc(N)n1 , state whether its %Inh is greater than or equal to 20%.
criterion not met

In plain terms: is recorded %Inh at least 20% for Nc1ncc(-c2ccc3nccc(-c4ccncc4)c3c2)cc1S(=O)(=O)N1CCOCC1 ?
criterion not met

Reference for the values: paper PMC5540273
